assaySummary: qHTS of pediatric cancer cell lines to identify multiple opportunities for drug repurposing: Primary screen for BT-12 cells (AID 1347101); note: nearly all actives have a fitted effect of over 25% in size
runConditions: BT-12 viability, CellTiter-Glo luminescence, 48 h; series mostly up to 57.3 µM
Results filed as inconclusive are left out. The source made the active and inactive calls. Calls come from the whole dose curve; as a rule, active = well fitted cell-killing curve with a large enough effect; inconclusive = small, poorly fitted or top-dose-only effect; inactive = flat fitted curve, though single readings scatter.
Bench note: report the call from active, inactive

Example results:
CCCN(CCC)C(=O)C(CCC(=O)OCCCN1CCN(CCOC(=O)Cc2c(C)n(C(=O)c3ccc(Cl)cc3)c3ccc(OC)cc23)CC1)NC(=O)c1ccccc1 (stereo not given) : inactive
CCCCCC(=O)O[C@]1(C(C)=O)CC[C@H]2[C@@H]3CCC4=CC(=O)CC[C@]4(C)[C@H]3CC[C@@]21C : active
CCOc1c(N2CCOCC2)cnn(C)c1=O : inactive
OC1(c2ccccc2)CCNCC1 : inactive

Continue with the compound presented below.
(Q) // return assay outcome for COC(=O)c1ccc(NC(C)=O)cc1OC
(A) inactive

----------
assaySummary: qHTS of pediatric cancer cell lines to identify multiple opportunities for drug repurposing: Primary screen for A673 cells (AID 1347092); note: nearly all actives have a fitted effect of over 45% in size
runConditions: A673 Ewing sarcoma viability, CellTiter-Glo ATP luminescence, 48 h; series mostly up to 46 µM
Inconclusive results are not listed. Active and inactive are the calls of the source. Calls follow the shape of the dose curve; as a rule, active = well fitted cell-killing curve with a large enough effect; inconclusive = small, poorly fitted or top-dose-only effect; inactive = no such curve, though single readings can be large or run the other way.
Bench note: report the call from active, inactive

Example results:
CCOC(=O)NNc1ccc(N(CC)CC(C)O)nn1 (configuration not stated) : inactive
CC(C(=O)O)c1ccc(/C=C2\CCCCC2=O)cc1 (configuration not stated) : inactive
CC(=O)N(CC(=O)N(C)C)c1ccccc1 : inactive
Cc1cnc(NS(=O)(=O)c2ccc(N)cc2)nc1 : inactive
O=C(c1ccccc1)c1ccccc1 : inactive

(Q) // return assay outcome for Cc1oc(=O)oc1COC(=O)[C@@H]1N2C(=O)[C@@H](NC(=O)[C@H](N)c3ccccc3)[C@H]2SC1(C)C
(A) inactive

(Q) // return assay outcome for O=C1CC(c2ccc(Cl)cc2)CC(=O)N1
(A) inactive

(Q) // return assay outcome for c1ccc2c(c1)CCc1ccccc1N2
(A) inactive

(Q) // return assay outcome for CCC(=O)O[C@H]1[C@H](O[C@@H]2[C@@H](C)[C@H](O[C@H]3C[C@@](C)(OC)[C@@H](O)[C@H](C)O3)[C@@H](C)C(=O)O[C@H](CC)[C@@](C)(O)[C@H](O)[C@@H](C)C(=O)[C@H](C)C[C@@]2(C)O)O[C@H](C)C[C@@H]1N(C)C
(A) inactive

(Q) // return assay outcome for OC[C@]1(O)OC[C@@H](O)[C@H](O)[C@@H]1O
(A) inactive

(Q) // return assay outcome for CNC(=O)c1cnn(-c2nc(N)c3ncn([C@@H]4O[C@H](CO)[C@@H](O)[C@H]4O)c3n2)c1
(A) inactive

(Q) // return assay outcome for C/C(=N/NC(=O)c1ccncc1)C(=O)O
(A) inactive

(Q) // return assay outcome for CCCc1c2oc(C(=O)O)cc(=O)c2cc2c(=O)cc(C(=O)O)n(CC)c12
(A) inactive

(Q) // return assay outcome for C[C@H]1C[C@H](O)c2ccsc2S1(=O)=O
(A) inactive

(Q) // return assay outcome for CCOC(=O)NNc1nncc2ccccc12
(A) inactive

(Q) // return assay outcome for CCCCCCCC(=O)[O-].CCCCCCCC(=O)[O-].[Zn+2]
(A) inactive

(Q) // return assay outcome for N#CSCC(=O)O
(A) inactive

(Q) // return assay outcome for Brc1ccccc1-c1ccccc1
(A) inactive

(Q) // return assay outcome for Nc1ccc2cc3ccc(N)cc3nc2c1
(A) active

----------
assaySummary: qHTS of pediatric cancer cell lines to identify multiple opportunities for drug repurposing: Primary screen for NB-EBc1 cells (AID 1347095)
runConditions: NB-EBc1 neuroblastoma viability, CellTiter-Glo luminescence, 48 h; series mostly up to 46 µM
Inconclusive results are not listed. Activity calls are given as the source filed them. Calls come from the whole dose curve; as a rule, active = well fitted cell-killing curve with a large enough effect; inconclusive = small, poorly fitted or top-dose-only effect; inactive = no such curve, though single readings can be large or run the other way.
Bench note: report the call from active, inactive

COc1cc(C=O)ccc1O : inactive
CCCC(=O)OCOC(=O)C1=C(C)NC(C)=C(C(=O)OC)C1c1cccc(Cl)c1Cl (stereo not given) : inactive
COC(=O)/C=C\C(=O)OC : inactive
N#CSCC(=O)O : inactive

(Q) // return assay outcome for CN1CCC(N(Cc2cccs2)c2ccccc2)CC1
(A) inactive

(Q) // return assay outcome for CN1CCCN(C(c2ccccc2)c2ccc(Cl)cc2)CC1 (stereo not given)
(A) inactive

(Q) // return assay outcome for CCOc1c(N2CCOCC2)cnn(C)c1=O
(A) inactive

(Q) // return assay outcome for CN1Cc2cc(C(=O)N3CCC(C4CCNCC4)CC3)ccc2N[C@@H](CC(=O)O)C1=O
(A) inactive

----------
System: PA-1
assaySummary: Primary qHTS to identify gynecologic anti-cancer compounds using libraries of approved drugs and bioactive compounds (AID 1345084); note: nearly all actives have a fitted effect of over 55% in size
runConditions: Gynecologic cancer cell panel viability, ATPlite luminescence, 48 h; series mostly up to 57.5 µM
Inconclusive results are not listed. Active and inactive are the calls of the source. Calls follow the shape of the dose curve; as a rule, active = well fitted cell-killing curve with a large enough effect; inconclusive = small, poorly fitted or top-dose-only effect, or effect the other way; inactive = flat fitted curve, though single readings scatter.
Bench note: report the call from active, inactive

Example results:
OCc1cccnc1 : inactive
C[C@@H](C1=C(CCN(C)C)Cc2ccccc21)c1ccccn1 : inactive
C[N+]1(C)CCC(OC(=O)C(O)(c2ccccc2)C2CCCC2)C1 (stereo not drawn) : inactive
CCC[C@H](N[C@@H](C)C(=O)N1[C@H](C(=O)O)C[C@@H]2CCCC[C@@H]21)C(=O)OCC : inactive

(Q) // return assay outcome for Oc1ccccc1-c1nnco1
(A) inactive

(Q) // return assay outcome for CCCCOCCOC(=O)c1cccnc1
(A) inactive

(Q) // return assay outcome for Cc1nc(N)nc(N)c1-c1ccc(Cl)c(Cl)c1
(A) active

(Q) // return assay outcome for Clc1ccc2c(c1)Nc1ccccc1S2
(A) inactive

(Q) // return assay outcome for COC(=O)c1cc(Cl)ccc1OC
(A) inactive

(Q) // return assay outcome for C[C@H]1NCc2cc(-c3ccc4c(=O)c(C(=O)O)cn(C5CC5)c4c3OC(F)F)ccc21
(A) inactive

(Q) // return assay outcome for Cc1cccc(C)c1NC(=O)c1ccc(N)cc1
(A) inactive

(Q) // return assay outcome for COCCc1ccccn1
(A) inactive

(Q) // return assay outcome for COc1ccccc1N1CCN(CCN2C(=O)CC3(CCCC3)CC2=O)CC1
(A) inactive

----------
assaySummary: qHTS of pediatric cancer cell lines to identify multiple opportunities for drug repurposing: Primary screen for DAOY cells (AID 1347090); note: nearly all actives have a fitted effect of over 55% in size
runConditions: DAOY medulloblastoma viability, CellTiter-Glo luminescence, 48 h; series mostly up to 46 µM
Results filed as inconclusive are left out. The source made the active and inactive calls. Calls come from the whole dose curve; as a rule, active = well fitted cell-killing curve with a large enough effect; inconclusive = small, poorly fitted or top-dose-only effect; inactive = flat fitted curve, though single readings scatter.
Bench note: report the call from active, inactive

CC(C)(C)C(=O)OCOC(=O)C1N2C(=O)CC2S(=O)(=O)C1(C)C (stereo not drawn) : inactive
Cc1cccc(OCC(O)CNC(C)(C)C)c1C (stereo not drawn) : inactive
O=C(CCCl)NCCc1ccccc1 : inactive
CN(C)CCCOC1(Cc2ccccc2)CCCCCC1 : inactive
CC(=O)N[C@@H](CCC(N)=O)C(=O)O : inactive

(Q) // return assay outcome for CC(C)=CCC/C(C)=C/CC/C(C)=C/CCC(=O)OC/C=C(\C)CCC=C(C)C
(A) inactive

(Q) // return assay outcome for C#Cc1ccc(-c2ccccc2F)cc1
(A) inactive

----------
assaySummary: qHTS of pediatric cancer cell lines to identify multiple opportunities for drug repurposing: Confirmatory screen for NB-EBc1 cells (AID 1347115);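 note: cells exposed to compound for 48 h before the viability read; nearly all actives have a fitted effect of over 45% in size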
runConditions: NB-EBc1 neuroblastoma cells, viability (cytotoxicity); series mostly up to 45.9 µM
Results filed as inconclusive are left out. Active and inactive are the calls of the source. The call rests on the fitted dose curve; in most records, active means well fitted cell-killing curve with a large enough effect; inconclusive means small, poorly fitted or top-dose-only effect, or effect the other way; inactive means no such curve, though single readings can be large or run the other way.
Bench note: report the call from YES for active, NO for inactive

CC[C@@]1(O)C(=O)OCc2c1cc1n(c2=O)Cc2c-1nc1ccccc1c2/C=N/OC(C)(C)C : YES
CC(=O)O[C@@H]1C(=O)O[C@@H]2[C@H]1OC(=O)[C@@H]2OC(C)=O : NO
Nc1ccc2cc3ccc(N)cc3nc2c1 : YES
CC(=O)OCC(=O)[C@@]1(O)[C@H](OC(C)=O)C[C@H]2[C@@H]3CCC4=CC(=O)C=C[C@]4(C)[C@@]3(F)[C@@H](O)C[C@@]21C : NO
O=[N+]([O-])c1ccc(O)c2ncccc12 : YES
Cc1ccc(C(=O)Oc2ccc(C(O)CNC(C)(C)C)cc2OC(=O)c2ccc(C)cc2)cc1 (centres undefined) : NO
CC(C)(C)CC(=O)OCC(=O)[C@@]1(O)CC[C@H]2[C@@H]3CCC4=CC(=O)C=C[C@]4(C)[C@H]3[C@@H](O)C[C@@]21C : NO
CCCC(=O)O[C@]1(C(=O)COC(=O)CC)CC[C@H]2[C@@H]3CCC4=CC(=O)CC[C@]4(C)[C@H]3[C@@H](O)C[C@@]21C : NO

Continue with the compound presented below.
(Q) // return assay outcome for COc1c(C)c2c(c(O)c1C/C=C(\C)CCC(=O)OCCN1CCOCC1)C(=O)OC2
(A) YES

----------
assaySummary: Cell Viability - LYMP2-015 (AID 971);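 note: cells exposed to compound for 24 h; nearly all actives have a fitted effect of over 55% in size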
runConditions: LYMP2-015 lymphoblastoid cell viability; series mostly up to 92.2 µM
Records with an inconclusive call do not appear. Activity calls are given as the source filed them. The call rests on the fitted dose curve; in most records, active means well fitted cell-killing curve with a large enough effect; inconclusive means small, poorly fitted or top-dose-only effect; inactive means flat fitted curve, though single readings scatter.
Bench note: report the call from active, inactive

Example results:
CC(C)(C)c1ccc(O)c(O)c1 : active
CCCC(=O)c1cc(O)c(O)cc1O : inactive
Nc1c2ccccc2nc2ccccc12 : active
OCc1c[nH]c2ccccc12 : inactive
C1=CC2C3C=CC(C3)C2C1 (configuration not stated) : inactive
CC(C)C(C)(C)C(C)(C)C(C)(C)S : inactive

(Q) // return assay outcome for O=C(Oc1ccccc1)c1ccccc1O
(A) inactive

(Q) // return assay outcome for COc1cc(C=O)ccc1O
(A) inactive

(Q) // return assay outcome for Oc1ccccc1
(A) inactive

(Q) // return assay outcome for CCCCCCCCCCCCCCCC[n+]1ccccc1
(A) active

(Q) // return assay outcome for CC(C)(c1ccc(O)cc1)c1ccc(O)cc1
(A) inactive

(Q) // return assay outcome for Nc1ccc(O)cc1
(A) active

Data credit: PubChem BioAssay (NCATS)
